Values were extracted from patent US20250152585A1.

molecular target: full length N-terminally FLAG-tagged PARP1 (Homo sapiens); test: PARP1 probe displacement HTRF assay; settings: read-out: PARP1 HTRF; binned Kd, PARP1 probe displacement HTRF
Sequence (P09874 whole entry): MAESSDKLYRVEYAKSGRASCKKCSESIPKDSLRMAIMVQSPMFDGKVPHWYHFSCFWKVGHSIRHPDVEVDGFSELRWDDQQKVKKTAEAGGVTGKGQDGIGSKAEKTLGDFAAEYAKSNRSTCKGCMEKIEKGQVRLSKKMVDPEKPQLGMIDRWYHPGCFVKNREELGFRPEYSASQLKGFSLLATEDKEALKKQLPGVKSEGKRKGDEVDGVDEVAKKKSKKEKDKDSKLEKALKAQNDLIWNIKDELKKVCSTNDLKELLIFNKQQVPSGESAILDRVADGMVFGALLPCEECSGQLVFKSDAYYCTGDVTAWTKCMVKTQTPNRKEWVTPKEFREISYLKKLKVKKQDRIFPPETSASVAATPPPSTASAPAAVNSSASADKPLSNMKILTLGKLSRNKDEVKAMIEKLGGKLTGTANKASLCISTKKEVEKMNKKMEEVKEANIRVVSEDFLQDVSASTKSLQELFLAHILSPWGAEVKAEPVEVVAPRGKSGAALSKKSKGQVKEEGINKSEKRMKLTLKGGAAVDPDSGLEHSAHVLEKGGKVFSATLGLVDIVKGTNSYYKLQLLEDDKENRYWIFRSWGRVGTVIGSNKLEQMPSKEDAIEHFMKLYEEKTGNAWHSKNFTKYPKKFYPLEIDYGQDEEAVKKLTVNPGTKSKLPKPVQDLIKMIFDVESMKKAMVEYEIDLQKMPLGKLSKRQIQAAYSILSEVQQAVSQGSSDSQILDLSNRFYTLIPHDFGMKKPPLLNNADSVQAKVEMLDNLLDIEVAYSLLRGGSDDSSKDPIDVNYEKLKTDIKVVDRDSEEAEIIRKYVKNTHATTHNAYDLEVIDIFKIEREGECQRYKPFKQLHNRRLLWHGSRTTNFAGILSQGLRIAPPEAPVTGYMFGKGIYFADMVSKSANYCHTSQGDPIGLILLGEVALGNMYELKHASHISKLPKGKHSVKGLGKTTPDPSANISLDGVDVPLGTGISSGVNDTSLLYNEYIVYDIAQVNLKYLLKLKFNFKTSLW
pKd: −log10 of the molar value.
attribute measured: pKd

Below: 5 compounds and their reported pKd.
| compound | pKd |
| --- | --- |
| CNC(=O)c1ccc(N2CCC(N3CCCC(c4nc5ccncc5c(=O)[nH]4)C3)CC2)cn1 (single isomer, unassigned) [Compound 93a] | 6.00 to 7.00 |
| CNC(=O)c1ccc(N2CCC(N3CCC(c4ccc(OC)c(=O)[nH]4)C3)CC2)c(C(F)(F)F)n1 (single isomer, unassigned) [Compound 152b] | 7.00 to 8.00 |
| CNC(=O)c1ccc(F)c(N2CCC(N3CCC(c4nc5ccccc5c(=O)[nH]4)C3)CC2)n1 (racemic) | 6.00 to 7.00 |
| CNC(=O)c1ccc(N2CCC(N3CCC(c4nc5ccccc5c(=O)[nH]4)C3)CC2)nc1 (single isomer, unassigned) [Compound 46b] | 6.00 to 7.00 |
| CNC(=O)c1ccc(N2CCC(N3CCC(c4cc5ccccc5c(=O)[nH]4)C3)CC2)cn1 (single isomer, unassigned) [Compound 91a] | > 8.00 |

Data request: Tell us which pKd value is on record for CNC(=O)c1ccc(N2CCC(N3CCCC(c4ccc(C5CC5)c(=O)[nH]4)C3)CC2)cn1 (single isomer, unassigned) [Compound 126b]
Data returned: 6.00 to 7.00

Data request: Tell us which pKd value is on record for CNC(=O)c1ccc(N2CCC(N3CCC(c4nc5ccc(Cl)cc5c(=O)[nH]4)C3)CC2)cn1 (single isomer, unassigned) [Compound 68a]
Data returned: > 8.00

Data request: Tell us which pKd value is on record for CCNC(=O)c1ccc(N2CCC(N3CCC(c4nc5ccccc5c(=O)[nH]4)C3)CC2)cn1 (single isomer, unassigned) [Compound 111b]
Data returned: > 8.00

Data request: Tell us which pKd value is on record for CNC(=O)c1ccc(F)c(N2CCC(N3CCCC(c4nc5ccccc5c(=O)[nH]4)C3)CC2)n1 (racemic)
Data returned: 5.00 to 6.00

Data request: Tell us which pKd value is on record for CNC(=O)c1ccc(N2CCC(N3CCC(c4nc5onc(C(F)(F)F)c5c(=O)[nH]4)C3)CC2)cn1 (single isomer, unassigned) [Compound 176b]
Data returned: 6.00 to 7.00
